- target.system: Epidermal growth factor receptor (Homo sapiens, UniProt P00533)
- Sequence (P00533 whole entry, the tested form may be a part): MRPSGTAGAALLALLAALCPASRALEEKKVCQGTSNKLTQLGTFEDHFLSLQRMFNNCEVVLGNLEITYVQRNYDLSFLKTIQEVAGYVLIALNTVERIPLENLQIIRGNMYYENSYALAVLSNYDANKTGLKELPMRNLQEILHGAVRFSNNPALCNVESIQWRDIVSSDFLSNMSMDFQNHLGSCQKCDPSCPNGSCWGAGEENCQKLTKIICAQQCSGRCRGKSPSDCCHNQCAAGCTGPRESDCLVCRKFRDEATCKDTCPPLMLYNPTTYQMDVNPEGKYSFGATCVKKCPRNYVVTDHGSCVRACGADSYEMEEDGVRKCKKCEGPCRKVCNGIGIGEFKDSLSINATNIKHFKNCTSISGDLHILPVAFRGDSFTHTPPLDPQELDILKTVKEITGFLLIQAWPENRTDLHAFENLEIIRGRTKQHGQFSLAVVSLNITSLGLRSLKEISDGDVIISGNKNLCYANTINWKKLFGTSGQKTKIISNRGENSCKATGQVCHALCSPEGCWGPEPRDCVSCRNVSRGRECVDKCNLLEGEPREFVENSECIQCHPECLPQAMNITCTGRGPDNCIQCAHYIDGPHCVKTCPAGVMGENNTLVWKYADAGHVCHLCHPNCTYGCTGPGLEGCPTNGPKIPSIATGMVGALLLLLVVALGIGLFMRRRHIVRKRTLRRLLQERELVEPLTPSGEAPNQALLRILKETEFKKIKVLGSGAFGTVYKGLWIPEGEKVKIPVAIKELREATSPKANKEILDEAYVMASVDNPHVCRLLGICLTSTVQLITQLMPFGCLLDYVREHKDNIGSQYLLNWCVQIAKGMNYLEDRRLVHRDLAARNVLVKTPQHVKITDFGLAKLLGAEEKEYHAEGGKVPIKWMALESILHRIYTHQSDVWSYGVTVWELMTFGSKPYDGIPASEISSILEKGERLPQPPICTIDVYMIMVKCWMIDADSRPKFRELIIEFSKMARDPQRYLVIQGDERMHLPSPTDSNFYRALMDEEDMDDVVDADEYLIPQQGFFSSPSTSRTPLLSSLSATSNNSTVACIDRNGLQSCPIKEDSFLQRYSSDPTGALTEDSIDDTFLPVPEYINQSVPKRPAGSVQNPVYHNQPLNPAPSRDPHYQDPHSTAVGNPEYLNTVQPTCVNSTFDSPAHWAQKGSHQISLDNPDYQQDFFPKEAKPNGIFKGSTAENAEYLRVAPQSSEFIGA
- assay: Inhibition of GST-fused EGFR (unknown origin) in presence of ATP by microplate reader analysis
assay.readout: IC50 (nM)

smiles.data	assay.readout	observed.value
CCc1nnc2c(Nc3ccc(C(=O)/C=C/c4cc(OC)c(OC)c(OC)c4)cc3)nc3ccccc3n12	IC50	93

P = Fc1ccc(C2=Nc3ccc(F)cc3CN2/N=C\c2ccccc2)cc1
Q = CCCOCCSc1nc(-c2ccccc2Cl)nn1CCOCCC
IN: // compare measured IC50 between P and Q ; output the lower one I would appreciate it if you answered with the label of your choice.
OUT: P
(P: 75.2 nM, Q: 867 nM)
